Reported pIC50 values for the following molecules.
Molecular target: human Class I PI3 kinase β (Homo sapiens (Human))
Sequence (P42338 whole entry, looked up, canonical isoform): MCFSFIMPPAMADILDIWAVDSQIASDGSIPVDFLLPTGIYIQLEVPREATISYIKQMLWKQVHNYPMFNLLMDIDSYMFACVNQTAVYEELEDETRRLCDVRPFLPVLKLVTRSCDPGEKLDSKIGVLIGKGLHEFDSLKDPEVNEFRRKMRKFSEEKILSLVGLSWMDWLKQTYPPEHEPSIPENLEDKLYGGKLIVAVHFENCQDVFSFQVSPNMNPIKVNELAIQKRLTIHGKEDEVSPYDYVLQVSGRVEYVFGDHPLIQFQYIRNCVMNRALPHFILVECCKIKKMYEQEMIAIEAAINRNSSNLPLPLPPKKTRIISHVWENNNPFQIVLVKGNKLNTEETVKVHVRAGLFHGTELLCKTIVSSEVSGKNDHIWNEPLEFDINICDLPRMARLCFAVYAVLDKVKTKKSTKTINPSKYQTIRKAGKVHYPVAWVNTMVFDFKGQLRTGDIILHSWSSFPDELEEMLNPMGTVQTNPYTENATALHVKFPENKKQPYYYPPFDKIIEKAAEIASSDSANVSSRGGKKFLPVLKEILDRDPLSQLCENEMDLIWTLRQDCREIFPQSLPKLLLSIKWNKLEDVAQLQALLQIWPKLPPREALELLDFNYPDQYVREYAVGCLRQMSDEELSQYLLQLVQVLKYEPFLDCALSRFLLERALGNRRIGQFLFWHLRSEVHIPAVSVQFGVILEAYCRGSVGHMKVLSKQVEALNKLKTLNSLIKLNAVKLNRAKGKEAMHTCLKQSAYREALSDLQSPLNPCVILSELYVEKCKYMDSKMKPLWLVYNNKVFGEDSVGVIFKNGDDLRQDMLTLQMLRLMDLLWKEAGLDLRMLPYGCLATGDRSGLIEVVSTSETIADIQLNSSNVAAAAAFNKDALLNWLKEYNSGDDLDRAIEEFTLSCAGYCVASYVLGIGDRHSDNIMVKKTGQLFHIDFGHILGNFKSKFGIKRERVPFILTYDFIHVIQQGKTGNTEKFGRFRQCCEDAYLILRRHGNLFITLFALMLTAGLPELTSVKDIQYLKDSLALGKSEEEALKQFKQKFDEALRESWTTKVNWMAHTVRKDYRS
Sequence (P27986 whole entry partner, looked up, canonical isoform): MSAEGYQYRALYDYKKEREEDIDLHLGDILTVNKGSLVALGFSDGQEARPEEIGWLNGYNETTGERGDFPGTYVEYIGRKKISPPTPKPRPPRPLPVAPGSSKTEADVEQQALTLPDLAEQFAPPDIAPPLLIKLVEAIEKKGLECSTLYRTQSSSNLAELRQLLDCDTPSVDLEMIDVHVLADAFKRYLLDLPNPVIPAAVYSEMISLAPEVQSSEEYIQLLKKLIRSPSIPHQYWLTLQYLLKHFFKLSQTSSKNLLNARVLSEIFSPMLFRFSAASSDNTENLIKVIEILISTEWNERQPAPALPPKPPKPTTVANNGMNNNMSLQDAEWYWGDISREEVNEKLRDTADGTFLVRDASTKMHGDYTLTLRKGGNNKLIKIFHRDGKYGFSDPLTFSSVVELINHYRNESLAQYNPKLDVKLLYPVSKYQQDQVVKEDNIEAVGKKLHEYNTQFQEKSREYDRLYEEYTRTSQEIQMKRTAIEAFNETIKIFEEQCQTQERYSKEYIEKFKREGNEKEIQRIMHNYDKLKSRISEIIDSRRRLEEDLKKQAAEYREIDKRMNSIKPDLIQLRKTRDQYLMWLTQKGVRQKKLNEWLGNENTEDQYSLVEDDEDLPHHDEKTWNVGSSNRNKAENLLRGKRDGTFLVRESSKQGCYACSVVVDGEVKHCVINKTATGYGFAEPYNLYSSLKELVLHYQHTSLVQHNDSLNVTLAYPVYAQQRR
Assay: PI3-Kinase Promega ADP-Glo Max assay, β isoform
Details: 40 nM kinase, 3 mM ATP, 500 uM diC8-PtdInsP; read-out: Promega β PI3K IC50
pIC50: −log10 of the molar value.

{"columns": ["query.smiles", "quantity.measured", "measured"],
 "data": [
  ["CC(=O)Cc1cccc2nc([C@H](C)NC(=O)c3c(N)nn4cccnc34)n(-c3ccccc3)c(=O)c12", "pIC50", "5.00 to 6.00"],
  ["C[C@H](NC(=O)c1c(N)nn2cccnc12)c1cc2cccc(Cl)c2c(=O)n1-c1ccccc1S(C)(=O)=O", "pIC50", "5.00 to 6.00"],
  ["C[C@H](NC(=O)c1c(N)nn2cccnc12)c1cc2cccc(Cl)c2c(=O)n1CCc1ccccc1", "pIC50", "5.00 to 6.00"],
  ["Cc1cccc2c(=O)n(-c3ccccc3)c([C@H](C)NC(=O)c3c(N)nn4cccnc34)nc12", "pIC50", "5.00 to 6.00"],
  ["C[C@H](NC(=O)c1c(N)nn2cccnc12)c1cc2cccc(Cl)c2c(=O)n1CCc1ncn[nH]1", "pIC50", "6.00 to 6.30"]
]}

Req: If you can, please state the reported pIC50 value of C[C@H](NC(=O)c1nccnc1N)c1nc2cccc(Cl)c2c(=O)n1-c1ccc(F)cc1 .
Resp: 5.00 to 6.00

Req: Entry to check: C[C@H](NC(=O)c1c(N)nn2cccnc12)c1cc2cccc(Cl)c2c(=O)n1CCCNS(C)(=O)=O
Resp: 7.00 to 8.00

Req: Please give the result for C[C@H](NC(=O)c1c(N)nn2cccnc12)c1nc2cccc(Cl)c2c(=O)n1-c1ccc(F)c(F)c1 too.
Resp: 5.00 to 6.00

Req: Param item: C[C@H](NC(=O)c1c(N)nn2cccnc12)c1cc2cccc(-c3cnn(CC(F)(F)F)c3)c2c(=O)n1-c1ccccc1
Resp: 5.00 to 6.00

Where do these numbers come from? They come from patent US9751888B2.
